observation_type: logP

molecule	observation_type	meas_value
CCC(C(N)=O)n1nc2ccccc2n1 (centres undefined)	logP	1.25
CC(CC(=O)O)n1nnc2ccccc21 (centres undefined)	logP	-0.2
CCOC(=O)C(C)n1nc2ccccc2n1 (centres undefined)	logP	2.38

P: CCCCC(C(N)=O)n1nc2ccccc2n1 (centres undefined)
Q: CC(CCC(=O)O)n1nnc2ccccc21 (centres undefined)
Lower value for measured logP? Options: P , Q Identify your selection by its label.
Q

P: CCCCC(C(N)=O)n1nnc2ccccc21 (centres undefined)
Q: CCCC(C(=O)OCC)n1nc2ccccc2n1 (centres undefined)
R: CC(C(N)=O)n1nc2ccccc2n1 (centres undefined)
Arrange these molecules by their logP, starting with the largest number. // list labels; follow requested order
Q, P, R
